- Test system: Mycobacterium tuberculosis H37Rv (ATCC-27294)
- Protocol Description: MIC by MABA (Microplate Alamar Blue Assay), in vitro antimicrobial activity
- Assay type: cell-based
- Protocol Conditions: 1,2,3-triazole derivatives types I-III and rifampicin comparison pattern, M. tuberculosis H37Rv, MABA
Attribute Measured: MIC (µg/mL)
Enter your answer as a number in µg/mL; do not include the unit.

Field: example entries. Status: answers known.
- CO[C@H]1/C=C/O[C@@]2(C)Oc3c(C)c(O)c4c(O)c(c(/C=N/N5CCN(C)CC5)c(O)c4c3C2=O)NC(=O)/C(C)=C\C=C\[C@H](C)[C@H](O)[C@@H](C)[C@@H](O)[C@@H](C)[C@H](OC(C)=O)[C@@H]1C [Rifampicin, rifampicin, reference compound]: 1.0
- Clc1ccc(/N=C/c2cn(-c3ccc(Cl)cc3)nn2)cc1 [compound 119]: 40

Quickly give me recorded MIC for Brc1ccc(/N=C/c2cn(-c3ccc(Br)cc3)nn2)cc1 [compound 120]
20

====

Each item that follows carries a reported MIC.
- System: Mycobacterium tuberculosis H37Rv (ATCC-27294)
- Protocol Description: MIC by MABA (Microplate Alamar Blue Assay), in vitro antimicrobial activity
- Type: cell-based
- Protocol Conditions: 1,2,3-triazole derivatives types I-III and rifampicin comparison pattern, M. tuberculosis H37Rv, MABA
Response body: numeric value in µg/mL, unit text excluded.

Solved cases (3 shown):
• Cc1ccc(-n2cc(C=O)nn2)cc1 [114c] = 2.5
• O=Cc1cn(-c2cc(Cl)cc(Cl)c2)nn1 [114g] = 2.5
• N#Cc1ccc(-n2cc(C=O)nn2)cc1 [114i] = 5.0

Consider now this further molecule.
Recall and state the measured MIC for O=Cc1cn(-c2ccc(Br)cc2)nn1 [114b] .
5.0
